This collection of values is drawn from PubChem BioAssay AID1851.

target: Cytochrome P450 2C19 (Homo sapiens) (UniProt P33261); assay: Cytochrome panel assay with activity outcomes; conditions: recombinant CYP, pro-luciferin dealkylation, luminescence, p450-cyp2c19; series mostly up to 57.1 µM
Sequence (P33261 whole entry, looked up): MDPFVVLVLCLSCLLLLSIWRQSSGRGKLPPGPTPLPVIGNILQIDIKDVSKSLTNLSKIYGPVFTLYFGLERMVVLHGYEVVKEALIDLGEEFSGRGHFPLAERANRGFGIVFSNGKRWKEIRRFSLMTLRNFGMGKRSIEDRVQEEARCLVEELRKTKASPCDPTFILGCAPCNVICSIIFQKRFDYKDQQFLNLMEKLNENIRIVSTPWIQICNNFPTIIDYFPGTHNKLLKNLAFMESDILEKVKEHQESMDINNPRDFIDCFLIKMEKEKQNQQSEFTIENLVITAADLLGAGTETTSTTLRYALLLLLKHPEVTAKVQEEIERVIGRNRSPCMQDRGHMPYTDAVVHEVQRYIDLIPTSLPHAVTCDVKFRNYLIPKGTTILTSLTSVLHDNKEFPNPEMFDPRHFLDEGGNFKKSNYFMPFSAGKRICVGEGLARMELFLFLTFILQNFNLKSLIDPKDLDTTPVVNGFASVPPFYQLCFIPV
Hit rate of the full screen: of about 16,000 compounds, about 5,800 (36%) were called active. About 23% were inconclusive and are not listed. Calls follow the shape of the dose curve; as a rule, active = well fitted curve in the direction sought with a large enough effect; inconclusive = small, poorly fitted or top-dose-only effect, or effect the other way; inactive = no such curve, though single readings can be large or run the other way. The list shows a part of the results.
Can you answer with just one of these options? T for active, F for inactive

Example entries and their recorded answers appear below.
molecule: c1csc(CN2CCCC3(CCNCC3)C2)n1
classification: F
--
molecule: NN=C(N)N
classification: F
--
molecule: c1ccc2c(N3CCNCC3)cccc2c1
classification: F
--
molecule: Cc1ccccc1-c1nc(CS(=O)CC(=O)N2CCC3(CC2)OCCO3)c(C)o1 (stereo unspecified)
classification: T
--
molecule: O=C(c1cc(-c2ccccc2)nc2ccccc12)N1CCC2(CC1)OCCO2
classification: T
--
molecule: COc1cc([C@@H](O)CN)ccc1O
classification: F

Lab note: next molecule to report on.
Can you look up the reported call for "C[C@H](Br)CN(C[C@H](C)Br)c1ccc2c(c1)Cc1ccccc1-2" for me?
T

====

Molecular target: Cytochrome P450 2C19 (Homo sapiens) (UniProt P33261)
Experiment: Cytochrome panel assay with activity outcomes; as to activity, negative = inhibition: % is scaled to controls: 0 for no effect and ±100 for the full control effect
Conditions: recombinant CYP, pro-luciferin dealkylation, luminescence, p450-cyp2c19; series mostly up to 57.1 µM
Description: The P450 gene superfamily is involved in the metabolism and clearance of xenobiotics. This assay used various human CYP P450 isozymes to measure the dealkylation of various pro-luciferin substrates to luciferin. The luciferin is then measured by luminescence after the addition of a luciferase detection reagent. […] Inhibitors and some substrates limit the production of luciferin, and decrease measured luminescence. […] 8, Detection, 1 sec, ViewLux luminescent read […]
The whole screen tested about 16,000 compounds, of which about 5,800 (36%) were called active. Another 23% or so got no clear call; they are omitted. The list shows a part of the results.
Recorded activity, negative = inhibition for the following compounds

structure: CN(C)CCCc1c[nH]c2ccccc12
activity, negative = inhibition: -13.7% [at 11.4 µM] (inactive)
--
structure: COC(=O)[C@H]1C(=O)c2ccccc2O[C@@](C(=O)OC)(c2ccccc2)[C@@H]1c1ccccc1
activity, negative = inhibition: -43% [at 11.4 µM] (inactive)
--
structure: C[C@]1(O)CC[C@H]2[C@@H]3[C@@H](O)CC4=CC(=O)CC[C@@]4(C)[C@H]3CC[C@]21C
activity, negative = inhibition: 12.3% [at 11.4 µM] (inactive)
--
structure: N[C@@H](CP(=O)(O)O)C(=O)O
activity, negative = inhibition: 9.32% [at 11.4 µM] (inactive)
--
structure: CC1=C2C(=O)[C@@H]3[C@@H](CC=C4C[C@@H](O)CC[C@@]43C)[C@H]2CC[C@@]12O[C@H]1C[C@H](C)CN[C@H]1[C@@H]2C
activity, negative = inhibition: 15.9% [at 11.4 µM] (inactive)

// below: activity, negative = inhibition requested for another compound
State the recorded activity, negative = inhibition for this entry: "CC1=NN(c2ccc(S(=O)(=O)O)cc2C)C(=[OH+])[C@H]1N=Nc1cc(S(=O)(=O)O)ccc1C(=O)O.O.[Cr]"
33.2% [at 11.4 µM] (inactive)

====

biological target: Cytochrome P450 2C19 (Homo sapiens) (UniProt P33261); experiment: Cytochrome panel assay with activity outcomes; details: recombinant CYP, pro-luciferin dealkylation, luminescence, p450-cyp2c19; series mostly up to 57.1 µM
Screen size: about 16,000 compounds; about 5,800 (36%) were called active. Inconclusive results (about 23%) are left out. Calls come from the whole dose curve; as a rule, active = well fitted curve in the direction sought with a large enough effect; inconclusive = small, poorly fitted or top-dose-only effect, or effect the other way; inactive = no such curve, though single readings can be large or run the other way. This is one part of the list.
Can you answer with just one of these options? 1 for active, 0 for inactive

compound: N=C1c2ccccc2CN1NC(=O)c1ccc(Cl)cc1
classification: 0

compound: NCCSC(c1ccccc1)c1ccccc1
classification: 1

compound: CCC[C@@](C)(COC(N)=O)COC(=O)NC(C)C
classification: 0

compound: C[C@]12CC[C@H](O)C[C@@H]1CC[C@H]1[C@H]2CC[C@]2(C)C(=O)CC[C@@H]12
classification: 0

compound: C[C@]12CC[C@H](O)C[C@@H]1CC[C@H]1[C@H]2CC[C@]2(C)[C@H](C(=O)CO)CC[C@@H]12
classification: 0

compound: C[N+](C)(C)CCCCCC[N+](C)(C)C
classification: 0

Can you look up the reported call for "CCCN1CCC[C@@H]2Cc3[nH]ncc3C[C@H]21" for me?
0

Subsequent entry: "c1ccc(CN2CCN(Cc3ccc4c(c3)OCCO4)CC2)cc1"
0

Subsequent entry: Cc1ccc2c(c1)N(CCC(=O)N1CCC3(CC1)OCCO3)C(=O)C(C)O2 (stereo unspecified)
1

Subsequent entry: "N[C@H](CP(=O)(O)O)C(=O)O"
0

Subsequent entry: "O=c1cc(-c2ccc(O)c(O)c2)oc2cc(O)cc(O)c12"
0

====

molecular target: Cytochrome P450 2C19 (Homo sapiens) (UniProt P33261); test: Cytochrome panel assay with activity outcomes; settings: recombinant CYP, pro-luciferin dealkylation, luminescence, p450-cyp2c19; series mostly up to 57.1 µM
Screen size: about 16,000 compounds; about 5,800 (36%) were called active. About 23% were inconclusive and are not listed. Calls follow the shape of the dose curve; as a rule, active = well fitted curve in the direction sought with a large enough effect; inconclusive = small, poorly fitted or top-dose-only effect, or effect the other way; inactive = no such curve, though single readings can be large or run the other way. This is one part of the list.
Can you answer with just one of these options? active, inactive

Example entries and their recorded answers appear below.
molecule: NC(N)=NC(=O)c1nc(Cl)c(N)nc1N
classification: inactive
--
molecule: CCCCCCCCCOc1ccc2[nH]cc(CCN)c2c1
classification: active
--
molecule: COc1ccccc1CN1CC[C@@]2(CCCN(C(=O)Oc3ccccc3)C2)C1
classification: inactive

Can you look up the reported call for "O=C(O)CP(=O)(O)c1ccc(Cl)cc1" for me?
inactive

Subsequent entry: "Cc1ccc(N2C(=O)/C(=C/c3ccc(CN(CCC#N)S(C)(=O)=O)o3)C(=O)NC2=S)cc1C"
active

Subsequent entry: "CC[C@@]1(c2ccc(N)cc2)CCC(=O)NC1=O"
inactive

Subsequent entry: "O=C1C=C2C=C[C@H]3C[C@@]2(O1)[C@H]1CCCCN31"
inactive

Subsequent entry: CCN(CC)c1ccc(/C=C2/C(=O)NC(=O)N(CC3CCCO3)C2=O)cc1 (stereo unspecified)
active

Subsequent entry: "Fc1ccc(C(OCCN2CCN(C/C=C\c3ccccc3)CC2)c2ccc(F)cc2)cc1"
active

Subsequent entry: "C[C@H](N)c1cccc(Cl)c1Cl"
inactive

Subsequent entry: "COc1cc2c(cc1OC)[C@@H]1C(=O)c3ccc4c(c3O[C@@H]1CO2)C=CC(C)(C)O4"
active

Subsequent entry: "CC(C)n1cnc2c(C(=O)N[C@H]3CN4CCC3CC4)cc(Cl)cc21"
active

Subsequent entry: "NCCc1c[nH]c2ccc(C(N)=O)cc12"
inactive

Subsequent entry: "C/C=C1\C[C@H](C)[C@@](O)(CO)C(=O)OCC2=CCN3CC[C@@H](OC1=O)[C@@H]23"
inactive

Subsequent entry: "CN(C)CCC=C1c2ccccc2CCc2ccccc21"
inactive

Subsequent entry: COC(=O)C(O)(c1c(C)[nH]c2ccccc12)C(F)(F)F (stereo unspecified)
active

Subsequent entry: "NS(=O)(=O)c1cc([C@@]2(O)NC(=O)c3ccccc32)ccc1Cl"
inactive

Subsequent entry: "CC(C)CCn1c(N)c(C(=O)NCc2cccs2)c2nc3ccccc3nc21"
active

====

biological target: Cytochrome P450 2C19 (Homo sapiens) (UniProt P33261); test: Cytochrome panel assay with activity outcomes; conditions: recombinant CYP, pro-luciferin dealkylation, luminescence, p450-cyp2c19; series mostly up to 57.1 µM; as to activity, negative = inhibition: % is scaled to controls: 0 for no effect and ±100 for the full control effect
Screen size: about 16,000 compounds; about 5,800 (36%) were called active. Inconclusive results (about 23%) are left out. The list shows a part of the results.
attribute_measured: activity, negative = inhibition

Solved entries (count: 3):
molecule: C[C@H](c1ccccc1)N1CCN([C@@H](C)c2ccccc2)CC1
target_or_test_system: Cytochrome P450 2C19 (Homo sapiens) (UniProt P33261)
reading: -29.5% [at 11.4 µM] (inactive)
--
molecule: CCNC(C)(C)[C@@H](SS)c1ccc(Br)cc1
target_or_test_system: Cytochrome P450 2C19 (Homo sapiens) (UniProt P33261)
reading: -70.9% [at 11.4 µM] (inactive)
--
molecule: CC[C@]1(OC(=O)CN)C(=O)OCc2c1cc1n(c2=O)Cc2cc3ccccc3nc2-1
target_or_test_system: Cytochrome P450 2C19 (Homo sapiens) (UniProt P33261)
reading: 17% [at 11.4 µM] (inactive)

State the recorded activity, negative = inhibition for this entry: "O=[As](O)(O)c1ccc(NCc2ccccc2)cc1"
1.27% [at 11.4 µM] (inactive)

Subsequent entry: "CC[C@@](O)(C(=O)O)c1cc2n(c(=O)c1CO)Cc1cc3ccccc3nc1-2"
16.3% [at 11.4 µM] (inactive)

Subsequent entry: "c1cncc(CNCCN2CCNCC2)c1"
7.54% [at 11.4 µM] (inactive)

Subsequent entry: "Nc1nnnn1CCO"
28.1% [at 11.4 µM] (inactive)

Subsequent entry: "c1ccc2c(c1)-c1ccccc1C2N1CC2CCC(CC2)C1"
-44.5% [at 11.4 µM] (inactive)
